method-summary: phase I pharmacokinetics in blood (dried blood spot, LC-MS/MS, noncompartmental analysis)
Format: in vivo, human
assay-context: human, whole blood (dried blood spot), intravenous, 340 mg/m2, 340 mg/m^2, cycle 1 Day 1, N = 2, mean
value-type: AUC (ng·h/mL)

test-smiles	value-observed
O=C(NCCN1CCOCC1)Nc1nc2ccc(Sc3nnc4ccc(-c5ccc(F)cc5)nn34)cc2s1	16400

* * *

method-summary: phase I pharmacokinetics in blood (dried blood spot, LC-MS/MS, noncompartmental analysis)
Type: in vivo, human
assay-context: human, whole blood (dried blood spot), intravenous, 440 mg/m2, 440 mg/m^2, cycle 1 Day 1, n = 2, mean; read-out: AUC0–168
value-type: AUC(0-t) (ng·h/mL)

test-smiles	value-type	output-unit	value-observed
O=C(NCCN1CCOCC1)Nc1nc2ccc(Sc3nnc4ccc(-c5ccc(F)cc5)nn34)cc2s1	AUC(0-t)	ng·h/mL	22100

* * *

method-summary: phase I pharmacokinetics in blood (dried blood spot, LC-MS/MS, noncompartmental analysis)
Type: in vivo, human
assay-context: human, whole blood (dried blood spot), intravenous, 440 mg/m2, 440 mg/m^2, cycle 1 Day 22, N = 3, mean ± SD; read-out: CL (converted)
value-type: clearance

test-smiles	value-observed
O=C(NCCN1CCOCC1)Nc1nc2ccc(Sc3nnc4ccc(-c5ccc(F)cc5)nn34)cc2s1	503 mL/min

* * *

method-summary: phase I pharmacokinetics in blood (dried blood spot, LC-MS/MS, noncompartmental analysis)
Assay type: in vivo, human
assay-context: human, whole blood (dried blood spot), intravenous, 570 mg/m2, 570 mg/m^2, cycle 1 Day 1, n = 20, mean ± SD; read-out: CL (converted)

test-smiles	output-unit	clearance
O=C(NCCN1CCOCC1)Nc1nc2ccc(Sc3nnc4ccc(-c5ccc(F)cc5)nn34)cc2s1	mL/min	463

* * *

method-summary: phase I pharmacokinetics in blood (dried blood spot, LC-MS/MS, noncompartmental analysis)
Assay type: in vivo, human
assay-context: human, whole blood (dried blood spot), intravenous, 340 mg/m2, 340 mg/m^2, cycle 1 Day 22, N = 3, mean ± SD; read-out: AUC0–168

test-smiles	AUC(0-t)
O=C(NCCN1CCOCC1)Nc1nc2ccc(Sc3nnc4ccc(-c5ccc(F)cc5)nn34)cc2s1	16500 ng·h/mL

* * *

method-summary: phase I pharmacokinetics in blood (dried blood spot, LC-MS/MS, noncompartmental analysis)
Type: in vivo, human
assay-context: human, whole blood (dried blood spot), intravenous, 340 mg/m2, 340 mg/m^2, cycle 1 Day 1, N = 2, mean; read-out: t1/2z (converted)

test-smiles	output-unit	half-life
O=C(NCCN1CCOCC1)Nc1nc2ccc(Sc3nnc4ccc(-c5ccc(F)cc5)nn34)cc2s1	h	12.9

* * *

method-summary: phase I pharmacokinetics in blood (dried blood spot, LC-MS/MS, noncompartmental analysis)
Type: in vivo, human
assay-context: human, whole blood (dried blood spot), intravenous, 260 mg/m2, 260 mg/m^2, cycle 1 Day 1, n = 5, mean ± SD; read-out: t1/2z (converted)

test-smiles	half-life
O=C(NCCN1CCOCC1)Nc1nc2ccc(Sc3nnc4ccc(-c5ccc(F)cc5)nn34)cc2s1	12.6 h

* * *

method-summary: phase I pharmacokinetics in blood (dried blood spot, LC-MS/MS, noncompartmental analysis)
Assay type: in vivo, human
assay-context: human, whole blood (dried blood spot), intravenous, 570 mg/m2, 570 mg/m^2, cycle 1 Day 1, N = 21, mean ± SD, blood
value-type: Cmax

test-smiles	value-type	value-observed
O=C(NCCN1CCOCC1)Nc1nc2ccc(Sc3nnc4ccc(-c5ccc(F)cc5)nn34)cc2s1	Cmax	6570 ng/mL
